Source listed as paper PMC9352680.

- target: T1, PUF4 RNA-binding domain (Saccharomyces cerevisiae, UniProt P25339 537-888)
- T1 sequence: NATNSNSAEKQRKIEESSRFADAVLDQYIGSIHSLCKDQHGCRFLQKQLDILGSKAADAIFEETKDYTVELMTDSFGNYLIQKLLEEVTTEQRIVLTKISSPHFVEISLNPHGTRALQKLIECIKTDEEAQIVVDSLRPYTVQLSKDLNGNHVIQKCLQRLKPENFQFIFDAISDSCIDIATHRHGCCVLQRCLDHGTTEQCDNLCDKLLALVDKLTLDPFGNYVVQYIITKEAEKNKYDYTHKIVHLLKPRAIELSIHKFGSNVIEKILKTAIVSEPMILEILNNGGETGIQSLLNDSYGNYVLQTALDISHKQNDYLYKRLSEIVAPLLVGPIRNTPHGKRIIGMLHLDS
- assayNotes: Mg; RNA-MaP; 20 mM Na-HEPES pH 7.4, 30 mM KOAc, 0.75 mM MgCl2, 0.1% Tween-20, 5% glycerol, 0.1 mg/mL BSA, 2 mM DTT; 25 C; 0.0125-409.6 nM protein
- reportedConditions: tags: N-His6-TEV cleaved; C-SNAP kept, Cy3B-labelled; label: tethered on chip by stalled RNA polymerase
recordedEndpoint: pKd
When answering, recall that pKd equals minus log10 of the concentration in mol/L, and write that number alone.

Sample records with pKd:
UCUCUUCCUAUAUUAUUAAAUCUCUU (ssRNA) [Id_ii_S1_P5E.3_K5.2_C5.2_[T-1C]_H5.2_A5.1_F5.1_T5.2_[T11A]] ... 6.17
UCUCUUUGUCUAUAUUAUCUCUU (ssRNA) [Ie_S1_P4E.1_K4.1_C4.1_H4.1_[+2TC]_A4.1_F4.1_T4.1] ... 7.08
UCUCUUAAAUGUAUAUAUAUCUCUU (ssRNA) [Id_i_S1_P3E.5_K3.1_C3.3_[T-3A]_[C-2A]_[T-1A]_H3.1_A3.1_F3.1_T3.2] ... 7.99

Input: Annotate the binder Ic_S4_P4E.1_K4.1_C4.1_H4.1_A4.1_[A6T]_F4.1_[A9T]_T4.1 (ssRNA) RNA: UUUGACAACUGAUCGUUCUUUCUUGUAUUUUUUUCUUUCUCGAUCAGUUGUCUUU with its measured pKd.
Output: 7.92

Input: Annotate the binder Ic_S2_P4E.1_K4.1_C4.1_H4.1_A4.1_[T5G]_[A6C]_F4.1_[A9G]_T4.1 (ssRNA) RNA: UUUGAUUAAUAUGAUAUCGUUCUUUCUUGUAGCUUGUUCUUUCUCGAUAUCAUAUUAAUCUUU with its measured pKd.
Output: 6.68

Input: Annotate the binder Ic_S2_P4E.1_K4.1_C4.1_H4.1_A4.1_[A6G]_F4.1_[T8G]_[A9C]_T4.1 (ssRNA) RNA: UUUGAUUAAUAUGAUAUCGUUCUUUCUUGUAUGUGCUUCUUUCUCGAUAUCAUAUUAAUCUUU with its measured pKd.
Output: 7.40

Input: Annotate the binder Ib_S2_P5E.1_K5.1_C5.1_H5.1_[A4G]_A5.1_F5.1_[A10C]_T5.1 (ssRNA) RNA: UUUGAUUAAUAUGAUAUCGUUCUUUCUUGUGUUAUUCUUCUUUCUCGAUAUCAUAUUAAUCUUU with its measured pKd.
Output: 6.97

Input: Annotate the binder Ic_S4_P4E.1_K4.1_C4.1_H4.1_A4.1_[T5C]_[A6C]_[T7C]_F4.1_[T8G]_[A9C]_T4.1 (ssRNA) RNA: UUUGACAACUGAUCGUUCUUUCUUGUACCCGCUUCUUUCUCGAUCAGUUGUCUUU with its measured pKd.
Output: 5.92
